- measured_on: human NOD2 (Homo sapiens)
- Construct: host or cells: HEK293
- Sequence (Q9HC29 whole entry): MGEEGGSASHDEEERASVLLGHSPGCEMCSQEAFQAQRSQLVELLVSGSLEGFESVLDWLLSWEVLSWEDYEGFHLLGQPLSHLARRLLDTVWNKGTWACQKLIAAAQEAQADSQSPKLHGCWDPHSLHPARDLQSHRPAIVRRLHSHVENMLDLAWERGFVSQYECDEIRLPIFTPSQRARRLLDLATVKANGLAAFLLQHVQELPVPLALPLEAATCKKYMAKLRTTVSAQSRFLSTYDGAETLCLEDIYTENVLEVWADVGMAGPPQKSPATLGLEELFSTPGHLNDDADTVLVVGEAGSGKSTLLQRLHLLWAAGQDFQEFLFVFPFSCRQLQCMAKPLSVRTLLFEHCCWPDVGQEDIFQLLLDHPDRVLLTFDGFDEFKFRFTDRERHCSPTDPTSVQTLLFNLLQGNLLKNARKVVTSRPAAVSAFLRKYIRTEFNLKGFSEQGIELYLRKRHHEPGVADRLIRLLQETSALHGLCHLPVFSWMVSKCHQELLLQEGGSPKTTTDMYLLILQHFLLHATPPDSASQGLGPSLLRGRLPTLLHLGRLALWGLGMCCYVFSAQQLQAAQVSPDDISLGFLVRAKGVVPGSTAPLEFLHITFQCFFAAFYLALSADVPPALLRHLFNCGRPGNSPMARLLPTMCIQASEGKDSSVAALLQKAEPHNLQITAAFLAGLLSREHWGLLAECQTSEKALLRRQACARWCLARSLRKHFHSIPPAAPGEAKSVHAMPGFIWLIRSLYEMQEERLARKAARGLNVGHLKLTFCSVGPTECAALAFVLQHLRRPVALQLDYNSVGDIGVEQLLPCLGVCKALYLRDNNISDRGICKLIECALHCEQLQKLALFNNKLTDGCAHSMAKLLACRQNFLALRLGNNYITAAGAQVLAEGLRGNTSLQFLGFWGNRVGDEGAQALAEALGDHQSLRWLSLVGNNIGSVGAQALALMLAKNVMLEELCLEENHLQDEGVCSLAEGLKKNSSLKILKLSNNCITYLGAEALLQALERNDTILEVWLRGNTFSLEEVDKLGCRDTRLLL
- measurement_protocol: human NOD2 specific reporter gene assay (NF-κB induction)
- Type: cell-based
- test_settings: human NOD2 reporter gene assay
observed_property: hNOD2-agonistic activity (in words)

{"molecule": "NC(=O)c1ccc(-n2cnc3ccccc32)cc1 [Compound 3j, 4-(1H-Benzo[d]imidazol-1-yl)benzamide]", "result": "devoid of activity"}
{"molecule": "CCCCc1nc2c(N)nccc2n1-c1csc(C(N)=O)c1 [Compound 19b]", "result": "weakly active"}
{"molecule": "CCCCNC(=O)c1cc(-n2cnc3ccccc32)cs1", "result": "inactive"}
{"molecule": "NC(=O)c1cc(-n2cnc3ccccc32)c[nH]1", "result": "devoid of activity"}
{"molecule": "NC(=O)c1cc(-n2cnc3c(N)nccc32)cs1 [Compound 19a]", "result": "inactive"}
{"molecule": "CCCCCc1nc2ccccc2n1-c1csc(C(N)=O)n1", "result": "weakly active"}
{"molecule": "NC(=O)c1cc(-n2cnc3cnccc32)cs1 [Compound 18a]", "result": "inactive"}
